# reported Normalized average relative binding affinity(ARB); entries follow
molecular target: HLA A*3201 (Homo sapiens, UniProt P04439, A270S/D101S/D185E/E176V/E277Q/F133L/G103R/G107R/G231S/H175R/I121M/I218V/I322F/K168Q/L105A/L300P/L318F/M331R/P208A/P217A/Q94H/R106L/R138Q/S129P/T104I/T323A/T345S/V100E/V321M/V358M); assay: biochemical; assay type: binding
VALUE_TYPE: Normalized average relative binding affinity(ARB)

{"columns": ["INPUT_SEQUENCE", "VALUE_REPORTED"],
 "data": [
  ["XXXXXXKXX [3064.0129]", 0.030],
  ["XXXLXXXXX [3064.0070]", 0.098],
  ["XXXXXXXQX [3064.0154]", 0.35],
  ["XXXXYXXXX [3064.0100]", 0.28],
  ["XXXXMXXXX [3064.0091]", 0.31],
  ["XXXXXXNXX [3064.0132]", 0.42],
  ["XXXXXXXGX [3064.0146]", 0.54],
  ["XXXXXXCXX [3064.0122]", 0.11],
  ["XXXXXXRXX [3064.0135]", 0.10],
  ["XXXMXXXXX [3064.0071]", 0.58],
  ["XXXXCXXXX [3064.0082]", 0.15],
  ["XXXNXXXXX [3064.0072]", 0.59],
  ["XXXXXXXKX [3064.0149]", 0.24],
  ["XXXXXAXXX [3064.0101]", 0.83],
  ["XXXXQXXXX [3064.0094]", 0.38],
  ["XXXXWXXXX [3064.0099]", 0.65],
  ["XXXXXXMXX [3064.0131]", 0.10],
  ["XXXXXHXXX [3064.0107]", 0.50],
  ["XXXXXXAXX [3064.0121]", 0.20],
  ["XXXPXXXXX [3064.0073]", 0.095],
  ["XXXXXXXSX [3064.0156]", 1.0],
  ["XXXXXXXTX [3064.0157]", 0.86],
  ["XXXXXXXYX [3064.0160]", 0.24],
  ["XXXXDXXXX [3064.0083]", 0.043],
  ["XXXXRXXXX [3064.0095]", 0.27],
  ["XXXTXXXXX [3064.0077]", 0.31],
  ["XXXXXQXXX [3064.0114]", 0.15],
  ["XXXXXTXXX [3064.0117]", 0.77],
  ["XXXXXPXXX [3064.0113]", 0.27],
  ["XXXXSXXXX [3064.0096]", 0.20],
  ["XXXXXXXCX [3064.0142]", 0.11],
  ["XXXXXCXXX [3064.0102]", 0.19],
  ["XXXXXXWXX [3064.0139]", 0.48]
]}

###

Known log10 IC50 of a selection of molecules
molecular target: HLA B*1501 (Homo sapiens, UniProt P01889, A329T/A93T/A95T/C349S/D201E/D98Y/E187L/E204Q/E69M/E70A/K202T/N87E/Q94N/R155S/R180W/S121R/S35A/S48A/V306I/V36M/Y140S/Y91S); assay: biochemical
Where a SMILES comes first, the peptide text is derived from it.
VALUE_TYPE: log10 IC50 (log10 of the value in nM)

{"columns": ["MOLECULE", "log10 IC50"],
 "data": [
  ["CC[C@H](C)[C@H](NC(=O)[C@@H]1CCCN1C(=O)[C@@H](NC(=O)[C@H](CO)NC(=O)[C@H](CC(N)=O)NC(=O)[C@H](Cc1ccc(O)cc1)NC(=O)[C@H](CO)NC(=O)[C@H](CCC(N)=O)NC(=O)[C@@H](N)CCSC)C(C)C)C(=O)O [3102.0353] (H-MQSYNSVPI-OH)", 0.20],
  ["CC(C)C[C@H](NC(=O)[C@@H](N)CCCNC(=N)N)C(=O)N[C@@H](CC(N)=O)C(=O)N1CCC[C@H]1C(=O)N[C@@H](CCC(=O)O)C(=O)N[C@H](C(=O)N[C@@H](CO)C(=O)N[C@@H](Cc1ccc(O)cc1)C(=O)N[C@@H](Cc1ccccc1)C(=O)O)C(C)C [3102.1097] (H-RLNPEVSYF-OH)", -0.52],
  ["CSCC[C@H](NC(=O)[C@H](Cc1c[nH]cn1)NC(=O)[C@H](CS)NC(=O)[C@@H](NC(=O)[C@H](CC(N)=O)NC(=O)[C@H](CC(N)=O)NC(=O)[C@@H](NC(=O)[C@H](CO)NC(=O)[C@@H](N)C(C)C)C(C)C)C(C)C)C(=O)O [3102.0880] (H-VSVNNVCHM-OH)", 1.15],
  ["CC[C@H](C)[C@H](NC(=O)[C@@H](N)Cc1c[nH]cn1)C(=O)N[C@@H](CC(N)=O)C(=O)N[C@@H](CCCCN)C(=O)N[C@@H](CC(C)C)C(=O)N[C@@H](Cc1ccccc1)C(=O)N[C@@H](CO)C(=O)N[C@H](C(=O)N[C@@H](Cc1ccccc1)C(=O)O)C(C)C [3102.0997] (H-HINKLFSVF-OH)", -0.04],
  ["CC[C@H](C)[C@H](NC(=O)[C@H](CC(C)C)NC(=O)[C@H](Cc1ccccc1)NC(=O)[C@@H](NC(=O)[C@H](CO)NC(=O)[C@H](Cc1ccc(O)cc1)NC(=O)[C@H](CC(C)C)NC(=O)[C@@H](N)CCCNC(=N)N)[C@@H](C)CC)C(=O)N[C@@H](Cc1ccccc1)C(=O)O [3102.1049] (H-RLYSIFLIF-OH)", 0.53],
  ["CSCC[C@H](NC(=O)[C@@H](NC(=O)[C@H](CCC(=O)O)NC(=O)[C@H](CCSC)NC(=O)[C@H](CC(C)C)NC(=O)[C@H](CCSC)NC(=O)[C@H](Cc1ccccc1)NC(=O)[C@@H](NC(=O)[C@H](C)N)C(C)C)[C@@H](C)O)C(=O)O [3102.0831] (H-AVFMLMETM-OH)", 1.41],
  ["CC[C@H](C)[C@H](NC(=O)[C@H](CS)NC(=O)[C@H](CO)NC(=O)[C@@H](NC(=O)[C@H](CS)NC(=O)[C@H](CO)NC(=O)[C@H](CCSC)NC(=O)[C@@H](N)CCSC)[C@@H](C)CC)C(=O)N[C@@H](Cc1ccccc1)C(=O)O [3102.0850] (H-MMSCISCIF-OH)", 0.88]
]}

###

target: HLA B*1503 (Homo sapiens, UniProt P01889, A329T/A93T/A95T/C349S/D201E/D98Y/E187L/E204Q/K202T/N87E/Q94N/R155S/R180L/S121R/S35A/V306I/V36M/Y140S/Y91S); test: biochemical
Where a SMILES comes first, the peptide text is derived from it.
VALUE_TYPE: log10 of IC50 (log10 of the value in nM)

{"columns": ["COMPOUND", "log10 of IC50"],
 "data": [
  ["CC[C@H](C)[C@H](NC(=O)[C@H](CCC(N)=O)NC(=O)[C@H](CC(N)=O)NC(=O)[C@H](CC(=O)O)NC(=O)[C@H](CCCNC(=N)N)NC(=O)[C@H](C)NC(=O)[C@@H](N)Cc1ccccc1)C(=O)N[C@@H](CO)C(=O)N[C@@H](Cc1ccccc1)C(=O)O [3102.1132] (H-FARDNQISF-OH)", -0.70],
  ["CSCC[C@H](N)C(=O)N[C@@H](CCCCN)C(=O)N[C@@H](Cc1ccc(O)cc1)C(=O)N[C@@H](CS)C(=O)N[C@@H](CO)C(=O)N[C@@H](Cc1ccc(O)cc1)C(=O)N[C@@H](CCC(N)=O)C(=O)N[C@@H](CO)C(=O)N[C@@H](Cc1ccccc1)C(=O)O [3102.1287] (H-MKYCSYQSF-OH)", 0.20],
  ["CC(C)C[C@H](NC(=O)[C@@H](NC(=O)[C@H](CCCNC(=N)N)NC(=O)[C@H](CC(N)=O)NC(=O)[C@H](CC(N)=O)NC(=O)[C@H](CCCCN)NC(=O)[C@@H](N)CCCCN)C(C)C)C(=O)N[C@@H](CS)C(=O)N[C@@H](Cc1ccccc1)C(=O)O [3102.1237] (H-KKNNRVLCF-OH)", 0.20],
  ["CSCC[C@H](NC(=O)[C@H](CCSC)NC(=O)[C@H](CCC(=O)O)NC(=O)[C@H](C)N)C(=O)N[C@@H](C)C(=O)N1CCC[C@H]1C(=O)N[C@@H](CO)C(=O)N[C@@H](CCSC)C(=O)N[C@@H](Cc1ccccc1)C(=O)O [3102.1211] (H-AEMMAPSMF-OH)", 1.23],
  ["CSCC[C@H](NC(=O)[C@@H](N)CS)C(=O)N[C@@H](CO)C(=O)N[C@@H](CC(N)=O)C(=O)N[C@@H](CO)C(=O)N[C@@H](CCCNC(=N)N)C(=O)N[C@@H](CC(C)C)C(=O)N[C@@H](CO)C(=O)N[C@@H](Cc1ccccc1)C(=O)O [3102.1225] (H-CMSNSRLSF-OH)", 0.00],
  ["CC[C@H](C)[C@H](NC(=O)[C@H](CC(N)=O)NC(=O)[C@@H](NC(=O)[C@H](Cc1ccccc1)NC(=O)[C@H](CO)NC(=O)[C@@H](NC(=O)[C@H](CO)NC(=O)[C@@H](N)Cc1c[nH]c2ccccc12)[C@@H](C)O)[C@@H](C)O)C(=O)N[C@@H](Cc1ccccc1)C(=O)O [3102.1342] (H-WSTSFTNIF-OH)", 0.77],
  ["CC[C@H](C)[C@H](NC(=O)[C@H](CO)NC(=O)[C@@H](N)Cc1ccccc1)C(=O)N[C@@H](Cc1ccc(O)cc1)C(=O)N[C@@H](CO)C(=O)N[C@H](C(=O)N[C@@H](CO)C(=O)N[C@@H](CS)C(=O)N[C@@H](Cc1ccccc1)C(=O)O)C(C)C [3102.1330] (H-FSIYSVSCF-OH)", 0.88]
]}
